B1: SNAP91 (parent)
chain: FAQPMMRPPFGAAAVPGTQLSPSP

Variants of: B1
measurement notes: protein stability index of a GFP-peptide fusion (GPS, HEK-293T) (PSI 1-6); higher = more stable;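 further: lentivirally expressed fusions sorted by FACS into six bins by GFP to DsRed ratio, PSI derived from sequencing read proportions per bin multiplied by bin number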
test conditions: c terminus: a fixed tail appended
reported endpoint: protein stability index
// keep it numeric: no unit symbol after the value

Study these solved cases before continuing.
FAEPMMRPPFGAAAVPGTQLSPSP [Q3E]    2.17
FAQPMMRPYFGAAAVPGTQLSPSP [P9Y]    2.34
FAQPMMRPPFGAAAVPGTQLSPYP [S23Y]    2.52
FAQPMMRPPSGAAAVPGTQLSPSP [F10S]    3.81
FAQPMMRPPFGAAIVPGTQLSPSP [A14I]    2.82

Ask: # return recorded protein stability index for input FAQPMMRPPFGAAAVPTTQLSPSP [G17T]
Reply: 3.24

Ask: # return recorded protein stability index for input FAQPMMRPPFGAAAVYGTQLSPSP [P16Y]
Reply: 2.15

Ask: # return recorded protein stability index for input FKQPMMRPPFGAAAVPGTQLSPSP [A2K]
Reply: 3.84

Ask: # return recorded protein stability index for input FAQPMMRPPFGAAAVPKTQLSPSP [G17K]
Reply: 3.17

Ask: # return recorded protein stability index for input FAQPMMRPPFLAAAVPGTQLSPSP [G11L]
Reply: 3.04

Ask: # return recorded protein stability index for input FAQMMMRPPFGAAAVPGTQLSPSP [P4M]
Reply: 1.61
